experimental.system: Estrogen receptor (Mus musculus) (UniProt O08537+P19785)
Sequence (O08537 whole entry, looked up): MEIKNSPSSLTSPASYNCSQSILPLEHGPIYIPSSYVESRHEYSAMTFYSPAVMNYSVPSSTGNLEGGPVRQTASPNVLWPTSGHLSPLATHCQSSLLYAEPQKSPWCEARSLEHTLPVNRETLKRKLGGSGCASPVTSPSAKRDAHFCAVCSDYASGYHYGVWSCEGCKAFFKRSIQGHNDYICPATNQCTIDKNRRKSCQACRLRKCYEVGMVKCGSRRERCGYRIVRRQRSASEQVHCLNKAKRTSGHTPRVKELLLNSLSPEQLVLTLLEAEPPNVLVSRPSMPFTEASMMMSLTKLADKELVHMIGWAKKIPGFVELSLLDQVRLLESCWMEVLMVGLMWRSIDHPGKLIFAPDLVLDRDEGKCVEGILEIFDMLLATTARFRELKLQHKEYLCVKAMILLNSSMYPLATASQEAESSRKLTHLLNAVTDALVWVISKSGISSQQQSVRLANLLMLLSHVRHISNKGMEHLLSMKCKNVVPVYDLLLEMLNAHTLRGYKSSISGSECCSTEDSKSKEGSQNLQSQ
Sequence (P19785 whole entry, looked up): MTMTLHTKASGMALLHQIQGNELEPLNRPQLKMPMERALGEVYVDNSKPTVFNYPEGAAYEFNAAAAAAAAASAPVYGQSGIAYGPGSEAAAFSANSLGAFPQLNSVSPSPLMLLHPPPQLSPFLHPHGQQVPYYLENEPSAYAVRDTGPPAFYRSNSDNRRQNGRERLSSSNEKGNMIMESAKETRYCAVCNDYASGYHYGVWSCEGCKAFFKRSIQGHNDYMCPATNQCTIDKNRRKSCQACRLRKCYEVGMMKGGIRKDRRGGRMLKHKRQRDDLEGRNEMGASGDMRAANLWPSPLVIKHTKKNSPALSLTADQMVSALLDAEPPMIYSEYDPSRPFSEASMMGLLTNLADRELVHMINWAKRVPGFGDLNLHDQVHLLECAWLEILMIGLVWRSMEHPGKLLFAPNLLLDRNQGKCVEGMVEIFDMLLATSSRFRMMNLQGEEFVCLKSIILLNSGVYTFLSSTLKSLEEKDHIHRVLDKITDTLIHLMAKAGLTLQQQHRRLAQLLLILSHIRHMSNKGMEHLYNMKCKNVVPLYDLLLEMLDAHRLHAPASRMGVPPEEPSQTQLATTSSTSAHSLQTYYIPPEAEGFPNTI
assay.summary: Percentage inhibition of uterotrophic effects of estradiol in vivo following 100 ug i.p.
Assay type: functional, organism-based
measurement.parameters: in the assay text read “s.c.” for “i.p.”
inhibition overview
test.readout: inhibition (%)

smi	experimental.system	assay.result
O=C(/C(=C/c1ccccc1)c1ccccc1)c1ccccc1	Estrogen receptor (Mus musculus) (UniProt O08537+P19785)	51
O=C(/C(=C/c1ccccc1)c1ccccc1)c1ccc(O)cc1	Estrogen receptor (Mus musculus) (UniProt O08537+P19785)	36
COc1ccc(/C=C(\C(=O)c2ccccc2)c2ccccc2)cc1	Estrogen receptor (Mus musculus) (UniProt O08537+P19785)	52
O=C(/C(=C/c1ccc(O)cc1)c1ccc(O)cc1)c1ccccc1	Estrogen receptor (Mus musculus) (UniProt O08537+P19785)	44

Attribution: ChEMBL document CHEMBL1122978
